# Test system: HELA cells (Acc57)
# EXPERIMENTAL DETAILS: Cytotoxicity assay, MTT reduction (LC 50, GI 50)
# Type: cell-based
Non-standard residues stand in square brackets, D forms with d. Residues, ends and D or L forms follow the SMILES beside them. Chg = N[C@H](C(=O)O)C1CCCCC1; Dab = NCC[C@H](N)C(=O)O; Abu = CC[C@H](N)C(=O)O
Kindly state Cytotoxicity GI50 Hela cells for each of the entries shown.
Answer format: numeric, µM implied, no suffix.

Asked: Data request, read-out Cytotoxicity GI50 Hela cells, for CC[C@H](C)[C@@H]1NC(=O)[C@H](Cc2c[nH]c3ccccc23)NC(=O)[C@H]([C@@H](C)O)NC(=O)[C@@H]2CCCN2C(=O)[C@H]2CCCN2C(=O)[C@H](CCN)NC(=O)[C@H](CC(=O)O)NC(=O)[C@H](CCN)NC(=O)[C@H](CCN)NC(=O)[C@H](Cc2c[nH]c3ccccc23)NC(=O)[C@H](CCN)NC(=O)[C@H](CCN)NC(=O)[C@H](CCCCN)NC(=O)[C@H](CCN)NC1=O [Example 14] (cyclo(TWI[Dab]K[Dab][Dab]W[Dab][Dab]D[Dab][dP]P))
Given back: 12

Asked: Data request, read-out Cytotoxicity GI50 Hela cells, for CC[C@@H]1NC(=O)[C@H](CCN)NC(=O)[C@H](CCN)NC(=O)[C@H](Cc2c[nH]c3ccccc23)NC(=O)[C@H](CCN)NC(=O)[C@H](CCN)NC(=O)[C@H](CCCCN)NC(=O)[C@H](CCN)NC(=O)[C@H]([C@@H](C)CC)NC(=O)[C@H](Cc2c[nH]c3ccccc23)NC(=O)[C@H]([C@@H](C)O)NC(=O)[C@@H]2CCCN2C(=O)[C@H]2CCCN2C(=O)[C@H](CCN)NC1=O [Example 6] (cyclo(TWI[Dab]K[Dab][Dab]W[Dab][Dab][Abu][Dab][dP]P))
Given back: 50

Asked: Data request, read-out Cytotoxicity GI50 Hela cells, for CC[C@H](C)[C@@H]1NC(=O)[C@H](Cc2c[nH]c3ccccc23)NC(=O)[C@H]([C@@H](C)O)NC(=O)[C@@H]2CCCN2C(=O)[C@H]2CCCN2C(=O)[C@H](CCN)NC(=O)[C@H](C2CCCCC2)NC(=O)[C@H](CCN)NC(=O)[C@H](CCN)NC(=O)[C@H](Cc2c[nH]c3ccccc23)NC(=O)[C@H](CCN)NC(=O)[C@H](CCN)NC(=O)[C@H](CCCCN)NC(=O)[C@H](CCN)NC1=O [Example 11] (cyclo(TWI[Dab]K[Dab][Dab]W[Dab][Dab][Chg][Dab][dP]P))
Given back: 50

Asked: Data request, read-out Cytotoxicity GI50 Hela cells, for CC[C@H](C)[C@@H]1NC(=O)[C@H](Cc2c[nH]c3ccccc23)NC(=O)[C@H]([C@@H](C)O)NC(=O)[C@@H]2CCCN2C(=O)[C@H]2CCCN2C(=O)[C@H](CCN)NC(=O)[C@H](C)NC(=O)[C@H](CCN)NC(=O)[C@H](CCN)NC(=O)[C@H](Cc2c[nH]c3ccccc23)NC(=O)[C@H](Cc2c[nH]cn2)NC(=O)[C@H](CCN)NC(=O)[C@H](CCCCN)NC(=O)[C@H](CCN)NC1=O [Example 21] (cyclo(TWI[Dab]K[Dab]HW[Dab][Dab]A[Dab][dP]P))
Given back: 50

Asked: Data request, read-out Cytotoxicity GI50 Hela cells, for CC[C@H](C)[C@@H]1NC(=O)[C@H](Cc2c[nH]c3ccccc23)NC(=O)[C@H]([C@@H](C)O)NC(=O)[C@@H]2CCCN2C(=O)[C@H]2CCCN2C(=O)[C@H](CCN)NC(=O)[C@H](C)NC(=O)[C@H](CCN)NC(=O)[C@H](CCN)NC(=O)[C@H](Cc2c[nH]c3ccccc23)NC(=O)[C@H](CCN)NC(=O)[C@H](CCN)NC(=O)[C@H](CCCCN)NC(=O)[C@H](CCN)NC1=O [Example 1] (cyclo(TWI[Dab]K[Dab][Dab]W[Dab][Dab]A[Dab][dP]P))
Given back: 30
